Listed next: entries and their corresponding pEC50.
measurement.target: Toll-like receptor 8 (Homo sapiens, UniProt Q9NR97)
Sequence (Q9NR97 whole entry): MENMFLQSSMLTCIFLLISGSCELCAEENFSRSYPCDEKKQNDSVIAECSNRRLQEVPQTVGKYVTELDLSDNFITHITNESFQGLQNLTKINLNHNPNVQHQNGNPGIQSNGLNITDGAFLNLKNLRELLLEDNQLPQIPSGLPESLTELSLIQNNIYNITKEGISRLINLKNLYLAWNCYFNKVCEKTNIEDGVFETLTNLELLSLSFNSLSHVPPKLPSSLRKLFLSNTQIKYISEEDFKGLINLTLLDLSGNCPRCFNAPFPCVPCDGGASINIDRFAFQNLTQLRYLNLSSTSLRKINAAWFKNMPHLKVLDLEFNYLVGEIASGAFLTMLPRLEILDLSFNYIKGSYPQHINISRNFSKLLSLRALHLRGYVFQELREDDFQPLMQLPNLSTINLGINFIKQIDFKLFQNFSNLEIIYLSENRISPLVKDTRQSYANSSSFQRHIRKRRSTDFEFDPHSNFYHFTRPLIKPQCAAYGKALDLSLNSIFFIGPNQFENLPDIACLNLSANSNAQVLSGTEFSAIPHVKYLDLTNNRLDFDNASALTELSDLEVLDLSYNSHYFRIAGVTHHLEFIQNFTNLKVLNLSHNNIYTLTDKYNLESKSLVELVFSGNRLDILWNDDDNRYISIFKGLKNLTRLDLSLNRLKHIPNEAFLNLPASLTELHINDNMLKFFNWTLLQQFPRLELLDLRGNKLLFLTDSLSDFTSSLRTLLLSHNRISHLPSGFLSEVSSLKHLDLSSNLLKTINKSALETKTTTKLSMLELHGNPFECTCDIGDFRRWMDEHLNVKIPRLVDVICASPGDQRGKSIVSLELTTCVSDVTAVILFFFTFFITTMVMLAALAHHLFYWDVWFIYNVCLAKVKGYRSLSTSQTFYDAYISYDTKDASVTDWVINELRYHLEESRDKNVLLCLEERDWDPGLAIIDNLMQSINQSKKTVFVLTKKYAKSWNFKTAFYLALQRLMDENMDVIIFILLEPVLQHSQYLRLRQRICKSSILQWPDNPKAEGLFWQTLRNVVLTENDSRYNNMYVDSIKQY
assay.method.text: Agonist activity at TLR8 (unknown origin) expressed in HEK-Blue cells
pEC50: −log10 of the molar value.

Examples with answers:
CCN(Cc1nc2c(N)nc3cc(-c4cc[nH]n4)ccc3c2n1C)C(=O)OC(C)(C)C : < 4.00
CCN(Cc1nc2c(N)nc3cc(C4=CCCC4)ccc3c2[nH]1)C(C)=O : < 4.00
Nc1nc2cc(-n3cccn3)ccc2c2[nH]c(CN3C[C@H](c4ccccc4)CC3=O)nc12 : < 4.00

Q) Param readout = pEC50; param system = Toll-like receptor 8 (Homo sapiens, UniProt Q9NR97); param query = `Cc1ccc(-c2ccc3c(c2)nc(N)c2nc(CN4CCCC4=O)[nH]c23)cc1` ; response: value
A) < 4.00

Q) Record lookup: for Toll-like receptor 8 (Homo sapiens, UniProt Q9NR97), what pEC50 belongs to `Nc1nc2cc(-c3cccs3)ccc2c2[nH]c(CN3CCCC3=O)nc12` ?
A) < 4.00

Q) Provide value of pEC50 for this record tested with Toll-like receptor 8 (Homo sapiens, UniProt Q9NR97): `CCn1c(CN2CCCC2=O)nc2c(N)nc3cc(-c4cccs4)ccc3c21`
A) < 4.00

Q) Give recorded pEC50 with Toll-like receptor 8 (Homo sapiens, UniProt Q9NR97) for the following molecule: `CCN(C)Cc1nc2c(N)nc3cc(-c4cc[nH]n4)ccc3c2[nH]1`
A) < 4.00

meta.source: ChEMBL document CHEMBL4265998
